# target.desc: T1, Human BSSL (bile salt-stimulated lipase), native (human, UniProt P19835 21-753)
# T1 construct: Native full-length protein purified from human milk (Astra Hässle AB); also called hBSSL; non-biotinylated human BSSL
# T1 sequence: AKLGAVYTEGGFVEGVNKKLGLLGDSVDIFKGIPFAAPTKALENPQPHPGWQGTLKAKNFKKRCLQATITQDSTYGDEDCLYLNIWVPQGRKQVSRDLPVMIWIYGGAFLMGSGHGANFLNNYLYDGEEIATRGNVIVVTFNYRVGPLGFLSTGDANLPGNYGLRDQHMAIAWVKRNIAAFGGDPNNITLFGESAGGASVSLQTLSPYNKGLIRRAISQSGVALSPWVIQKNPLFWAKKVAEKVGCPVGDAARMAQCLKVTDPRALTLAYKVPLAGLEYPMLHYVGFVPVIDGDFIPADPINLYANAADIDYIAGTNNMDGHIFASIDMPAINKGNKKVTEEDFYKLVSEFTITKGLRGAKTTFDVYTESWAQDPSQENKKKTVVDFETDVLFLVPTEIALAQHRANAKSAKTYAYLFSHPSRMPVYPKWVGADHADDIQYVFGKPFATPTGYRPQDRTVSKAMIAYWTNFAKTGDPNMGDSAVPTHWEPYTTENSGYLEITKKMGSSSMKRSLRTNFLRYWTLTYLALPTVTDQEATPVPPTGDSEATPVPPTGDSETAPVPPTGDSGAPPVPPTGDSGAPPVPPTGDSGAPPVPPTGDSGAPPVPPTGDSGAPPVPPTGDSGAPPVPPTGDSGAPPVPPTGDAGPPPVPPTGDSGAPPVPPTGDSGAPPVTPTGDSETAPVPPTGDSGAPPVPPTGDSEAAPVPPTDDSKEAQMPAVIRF
# assay.overview: SPR single cycle kinetics, hIgG4 S228P captured by anti-Fab
readout: Kd (nM)
Give the number; nM is assumed, so skip it.

Incoming: # get_value(readout='Kd', item= S-SL048-38 hIgG4 S228P (antibody, V domains shown, Tested as human IgG4 S228P) VH: QVQLVQSGAEVKKPGASVKVSCKASGYTFTSYNMHWVRQAPGQGLEWMGVINPGDGATSYAQKFQGRVTMTRDTSTSTVYMELSSLRSEDTAVYYCARDYYGSSPLGYWGQGTLVTVSS VL: DIQMTQSPSSLSASVGDRVTITCRASPSISYLNWYQQKPGKAPKLLIYATSSLASGVPSRFSGSGSGTDFTLTISSLQPEDFATYYCQQRSSSPTFGQGTKLEIK )
Outgoing: 1
